This listing pairs compounds with measured relative viability.
test system: A204; experiment: relative viability vs DMSO control (72 h) (fraction); higher = more viable cells; conditions: 0.00051 µM

{"compound": "CCOc1cc2ncc(C#N)c(Nc3ccc(OCc4ccccn4)c(Cl)c3)c2cc1NC(=O)/C=C/CN(C)C", "relative viability": 1.09}
{"compound": "Cc1[nH]c(/C=C2\\C(=O)Nc3ccccc32)c(C)c1CCC(=O)O [Orantinib]", "relative viability": 1.12}
{"compound": "CNC(=O)c1c(C)oc2cc(Oc3ncnc4cc(OC)c(OC)cc34)ccc12", "relative viability": 1.09}
{"compound": "CS(=O)(=O)CCNCc1ccc(-c2ccc3ncnc(Nc4ccc(OCc5cccc(F)c5)c(Cl)c4)c3c2)o1", "relative viability": 1.07}
{"compound": "CNC(=O)c1cccc2cc(Oc3ccnc4cc(OCC5(N)CC5)c(OC)cc34)ccc12", "relative viability": 1.07}
{"compound": "CN(C)CCCOc1ccc(-c2ccc3ncc4c(c3c2)n(C2CCOCC2)c(=O)n4C)cn1", "relative viability": 1.1}

====

tested on: HS729; experiment: relative viability vs DMSO control (72 h) (fraction); higher = more viable cells; conditions: 0.01372 µM

{"molecule": "Cc1[nH]c(/C=C2\\C(=O)Nc3ccccc32)c(C)c1CCC(=O)O [Orantinib]", "assayed.target": "HS729", "relative viability": 1.04}
{"molecule": "Cc1c2oc3c(C)ccc(C(=O)N[C@@H]4C(=O)N[C@H](C(C)C)C(=O)N5CCC[C@H]5C(=O)N(C)CC(=O)N(C)[C@@H](C(C)C)C(=O)O[C@@H]4C)c3nc-2c(C(=O)N[C@@H]2C(=O)N[C@H](C(C)C)C(=O)N3CCC[C@H]3C(=O)N(C)CC(=O)N(C)[C@@H](C(C)C)C(=O)O[C@@H]2C)c(N)c1=O", "assayed.target": "HS729", "relative viability": 0.711}
{"molecule": "Cn1cnc2c(F)c(Nc3ccc(Br)cc3Cl)c(C(=O)NOCCO)cc21", "assayed.target": "HS729", "relative viability": 0.896}
{"molecule": "C#Cc1cccc(Nc2ncnc3cc4c(cc23)OCCOCCOCCO4)c1", "assayed.target": "HS729", "relative viability": 0.99}
{"molecule": "COc1cc(Nc2ncc3c(n2)-c2ccc(Cl)cc2C(c2c(F)cccc2OC)=NC3)ccc1C(=O)O", "assayed.target": "HS729", "relative viability": 0.859}
{"molecule": "CCS(=O)(=O)N1CC(CC#N)(n2cc(-c3ncnc4[nH]ccc34)cn2)C1", "assayed.target": "HS729", "relative viability": 1}

====

test system: SW872; assay: relative viability vs DMSO control (72 h) (fraction); higher = more viable cells; details: 3.333 µM
This listing pairs compounds with measured relative viability.

{"chemical.string": "CCS(=O)(=O)N1CC(CC#N)(n2cc(-c3ncnc4[nH]ccc34)cn2)C1", "relative viability": 1.01}
{"chemical.string": "C#Cc1cccc(Nc2ncnc3cc4c(cc23)OCCOCCOCCO4)c1", "relative viability": 1.04}
{"chemical.string": "O=C1CCc2c(Oc3ccc4c(c3)[C@@H]3[C@H](O4)[C@H]3c3nc4cc(C(F)(F)F)ccc4[nH]3)ccnc2N1", "relative viability": 0.644}
{"chemical.string": "O=C(c1ccc(F)c(F)c1Nc1ccc(I)cc1F)N1CC(O)([C@@H]2CCCCN2)C1", "relative viability": 0.39}
{"chemical.string": "CN(C)C/C=C/C(=O)Nc1cc2c(Nc3ccc(F)c(Cl)c3)ncnc2cc1O[C@H]1CCOC1", "relative viability": 0.304}
{"chemical.string": "CNC(=O)c1cccc2cc(Oc3ccnc4cc(OCC5(N)CC5)c(OC)cc34)ccc12", "relative viability": 1.04}
{"chemical.string": "COC(=O)c1ccc2c(c1)NC(=O)/C2=C(\\Nc1ccc(N(C)C(=O)CN2CCN(C)CC2)cc1)c1ccccc1", "relative viability": 0.963}

====

This listing pairs compounds with measured relative viability.
tested on: KHOS-NP; assay: relative viability vs DMSO control (72 h) (fraction); higher = more viable cells; conditions: 10 µM

{"compound": "CNC(=O)c1c(C)oc2cc(Oc3ncnc4cc(OC)c(OC)cc34)ccc12", "relative viability": 1.03}
{"compound": "Cn1cnc2c(F)c(Nc3ccc(Br)cc3Cl)c(C(=O)NOCCO)cc21", "relative viability": 0.277}
{"compound": "O=C(/C=C\\n1cnc(-c2cc(C(F)(F)F)cc(C(F)(F)F)c2)n1)NNc1cnccn1 [Selinexor]", "relative viability": 0.0794}
{"compound": "CCOc1cc2ncc(C#N)c(Nc3ccc(OCc4ccccn4)c(Cl)c3)c2cc1NC(=O)/C=C/CN(C)C", "relative viability": 0.486}

====

system: G401; test: relative viability vs DMSO control (72 h) (fraction); higher = more viable cells; details: 0.01372 µM
Response field label: string, one of Condition met (relative viability strictly below 1) or Condition not met.

{"chemical.string": "O=C(c1ccc(F)c(F)c1Nc1ccc(I)cc1F)N1CC(O)([C@@H]2CCCCN2)C1", "classification": "Condition met"}
{"chemical.string": "COc1cc(Nc2ncc3c(n2)-c2ccc(Cl)cc2C(c2c(F)cccc2OC)=NC3)ccc1C(=O)O", "classification": "Condition met"}
{"chemical.string": "CNC(=O)c1c(C)oc2cc(Oc3ncnc4cc(OC)c(OC)cc34)ccc12", "classification": "Condition not met"}

====

tested on: MES-SA; assay: relative viability vs DMSO control (72 h) (fraction); higher = more viable cells; details: 0.00152 µM
This listing pairs compounds with measured relative viability.

{"chemical.string": "C[C@@H]1CN(C(=O)c2ccc(NC(=O)c3cc(O[C@H](C)c4c(Cl)ccc(F)c4Cl)c(N)nn3)cc2)C[C@H](C)N1", "relative viability": 0.938}
{"chemical.string": "CO[C@H]1C[C@@H]2CC[C@@H](C)[C@@](O)(O2)C(=O)C(=O)N2CCCC[C@H]2C(=O)O[C@H]([C@H](C)C[C@@H]2CC[C@@H](OC(=O)C(C)(CO)CO)[C@H](OC)C2)CC(=O)[C@H](C)/C=C(\\C)[C@@H](O)[C@@H](OC)C(=O)[C@H](C)C[C@H](C)/C=C/C=C/C=C/1C", "relative viability": 0.497}

====

system: MES-SA; experiment: relative viability vs DMSO control (72 h) (fraction); higher = more viable cells; conditions: 3.333 µM
This listing pairs molecules with measured relative viability.
endpoint.name: relative viability

{"chemical.string": "O=C1CCc2c(Oc3ccc4c(c3)[C@@H]3[C@H](O4)[C@H]3c3nc4cc(C(F)(F)F)ccc4[nH]3)ccnc2N1", "quantitative.readout": 0.792}
{"chemical.string": "CCS(=O)(=O)N1CC(CC#N)(n2cc(-c3ncnc4[nH]ccc34)cn2)C1", "quantitative.readout": 0.83}
{"chemical.string": "CN(C)CCCOc1ccc(-c2ccc3ncc4c(c3c2)n(C2CCOCC2)c(=O)n4C)cn1", "quantitative.readout": 0.848}
{"chemical.string": "COc1cc2ncnc(Nc3ccc(F)c(Cl)c3)c2cc1OCCCN1CCOCC1", "quantitative.readout": 0.739}

====

This listing pairs molecules with measured relative viability.
test system: SW684; assay: relative viability vs DMSO control (72 h) (fraction); higher = more viable cells; conditions: 0.00152 µM
endpoint.name: relative viability

{"chemical.string": "Cc1c2oc3c(C)ccc(C(=O)N[C@@H]4C(=O)N[C@H](C(C)C)C(=O)N5CCC[C@H]5C(=O)N(C)CC(=O)N(C)[C@@H](C(C)C)C(=O)O[C@@H]4C)c3nc-2c(C(=O)N[C@@H]2C(=O)N[C@H](C(C)C)C(=O)N3CCC[C@H]3C(=O)N(C)CC(=O)N(C)[C@@H](C(C)C)C(=O)O[C@@H]2C)c(N)c1=O", "quantitative.readout": 1.09}
{"chemical.string": "Cc1cc(F)c(C(=O)Nc2cccc(-c3nncn3C(C)C)n2)cc1-n1cnc(C2CC2)c1", "quantitative.readout": 1.14}
{"chemical.string": "CCS(=O)(=O)N1CC(CC#N)(n2cc(-c3ncnc4[nH]ccc34)cn2)C1", "quantitative.readout": 1.12}
{"chemical.string": "CN(C)C(=O)c1cc2cnc(Nc3ccc(N4CCNCC4)cn3)nc2n1C1CCCC1", "quantitative.readout": 1.14}
{"chemical.string": "CO[C@H]1C[C@@H]2CC[C@@H](C)[C@@](O)(O2)C(=O)C(=O)N2CCCC[C@H]2C(=O)O[C@H]([C@H](C)C[C@@H]2CC[C@@H](OC(=O)C(C)(CO)CO)[C@H](OC)C2)CC(=O)[C@H](C)/C=C(\\C)[C@@H](O)[C@@H](OC)C(=O)[C@H](C)C[C@H](C)/C=C/C=C/C=C/1C", "quantitative.readout": 0.956}
{"chemical.string": "COc1cc2ncnc(Nc3ccc(F)c(Cl)c3)c2cc1OCCCN1CCOCC1", "quantitative.readout": 1.09}
{"chemical.string": "COc1cc(Nc2ncc3c(n2)-c2ccc(Cl)cc2C(c2c(F)cccc2OC)=NC3)ccc1C(=O)O", "quantitative.readout": 1.18}
{"chemical.string": "CN(C)C/C=C/C(=O)Nc1cc2c(Nc3ccc(F)c(Cl)c3)ncnc2cc1O[C@H]1CCOC1", "quantitative.readout": 1.23}
{"chemical.string": "Cn1cnc2c(F)c(Nc3ccc(Br)cc3Cl)c(C(=O)NOCCO)cc21", "quantitative.readout": 1.06}
